# system: T1, human histidine-rich glycoprotein (HRG), purified from human plasma (human, UniProt P04196 19-525)
# T1 construct: also called human purified HRG; human purified HRG protein
# T1 sequence: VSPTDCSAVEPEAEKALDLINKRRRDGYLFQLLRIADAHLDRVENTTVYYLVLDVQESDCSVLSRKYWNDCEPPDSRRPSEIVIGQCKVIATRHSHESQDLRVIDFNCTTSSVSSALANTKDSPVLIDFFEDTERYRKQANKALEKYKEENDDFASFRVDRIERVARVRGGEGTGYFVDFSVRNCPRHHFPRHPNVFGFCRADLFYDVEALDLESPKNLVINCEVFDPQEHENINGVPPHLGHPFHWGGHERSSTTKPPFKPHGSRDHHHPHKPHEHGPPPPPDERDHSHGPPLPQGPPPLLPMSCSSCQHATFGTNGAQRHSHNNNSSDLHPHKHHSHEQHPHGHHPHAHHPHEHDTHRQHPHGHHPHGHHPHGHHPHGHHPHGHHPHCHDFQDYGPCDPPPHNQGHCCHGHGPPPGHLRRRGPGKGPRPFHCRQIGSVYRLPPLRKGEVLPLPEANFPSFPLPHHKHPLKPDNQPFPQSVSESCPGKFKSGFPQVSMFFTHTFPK
# assayComment: sandwich ELISA, HRG captured by solid phase 13-2G
absorbance at 450 nm listing for selected binders.

>  <binder>
anti-HRG monoclonal antibody 69-1A (antibody, V domains shown, Mouse hybridoma monoclonal; also called clone No. 69-1A) VH: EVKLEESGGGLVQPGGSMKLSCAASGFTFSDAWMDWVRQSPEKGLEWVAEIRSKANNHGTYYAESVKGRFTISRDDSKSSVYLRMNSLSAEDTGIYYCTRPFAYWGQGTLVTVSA VL: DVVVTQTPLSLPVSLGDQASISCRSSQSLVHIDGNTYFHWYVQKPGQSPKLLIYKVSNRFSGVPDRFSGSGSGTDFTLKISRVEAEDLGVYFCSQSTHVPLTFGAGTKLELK

>  <result>
< 1 OD

$$$$
>  <binder>
anti-HRG monoclonal antibody 6-12A-10B-9G (antibody, V domains shown, Mouse hybridoma monoclonal; biotin-labeled as detection antibody and for bead immobilisation) VH: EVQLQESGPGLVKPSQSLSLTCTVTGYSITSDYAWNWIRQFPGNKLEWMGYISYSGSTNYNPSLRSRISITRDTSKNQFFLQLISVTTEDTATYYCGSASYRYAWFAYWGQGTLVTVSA VL: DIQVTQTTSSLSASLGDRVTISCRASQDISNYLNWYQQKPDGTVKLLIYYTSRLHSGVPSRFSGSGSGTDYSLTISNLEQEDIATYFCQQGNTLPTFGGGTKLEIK

>  <result>
< 1 OD

$$$$

Name the reported absorbance at 450 nm value associated with the binder anti-HRG monoclonal antibody 50-6C-2A (antibody, V domains shown, Mouse hybridoma monoclonal) VH: EVQLQESGPGLVKPSQSLSLTCTVTGYSITSDYAWNWIRQFPGNKLEWMGYISYSGSTNYNPSLKSRISITRDTSKNQFFLQLNSVTTEDTATYYCASASYRYAWFAYWGQGTLVTVST VL: DIQMTQTTSSLSASLGDRVTISCRASQDISNYLNWYQQKPDGTVKLLIYYTSRLHSGVPSRFSGSGSGTDYSLTISNLEQEDIGTYFCQQGNTLPTFGGGTKLEIK
< 1 OD

The measurements presented in this section are drawn from patent US20250258178A1.
